TARGET: T1, recombinant human IgE (human, UniProt P01854-1 1-428)
T1 construct: made in-house (ALK); preloaded on immobilised FcεRIα in the displacement ELISA
T1 sequence (P01854 other isoform, or with tags, fused parts or gaps): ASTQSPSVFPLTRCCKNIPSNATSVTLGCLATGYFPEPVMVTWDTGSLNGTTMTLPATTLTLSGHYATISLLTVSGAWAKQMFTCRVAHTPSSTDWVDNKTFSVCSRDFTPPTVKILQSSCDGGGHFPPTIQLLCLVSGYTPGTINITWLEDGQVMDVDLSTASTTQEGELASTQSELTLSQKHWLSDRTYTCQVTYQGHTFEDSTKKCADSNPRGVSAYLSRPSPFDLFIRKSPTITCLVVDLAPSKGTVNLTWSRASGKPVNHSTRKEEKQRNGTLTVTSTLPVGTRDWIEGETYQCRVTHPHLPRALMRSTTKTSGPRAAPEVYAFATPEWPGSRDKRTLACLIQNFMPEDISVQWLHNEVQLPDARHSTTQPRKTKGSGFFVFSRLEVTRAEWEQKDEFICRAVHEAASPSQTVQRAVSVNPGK
TEST DESCRIPTION: IgE-FcεRIα displacement ELISA
RESULT TYPE: Max effect

INSERT INTO results (binder, result_type, reported) VALUES
  ('F1A1(G4S)4 (bispecific antibody) DVQLQESGGGLVQAGGSLKLSCAASGGSLSRYDMGWFRQAPGKEREFVARISWSGTTKYYADAVKGRFAISRDNAKNTVYLQMNSLKPEDTAVYYCAAAFYGNRGYYDVNAYTSSGQGTQVTVSGGGGSGGGGSGGGGSGGGGSEVQLLESGGGLVQPGGSLRLSCAASGFTFGNYDMAWVRQAPGKRPEWVSSIDTGGDITHYADSVKGRFTISRDNAKNTLYLQMNSLRPEDTAVYWCATDEEYALGPNEFDYYGQGTLVTVS', 'Max effect', '> 95%'),
  ('sdAb F6 (VHH) VHH: DVQLQESGGGLVQAGGSLRLSCAASGLTFGSYDMGWYRQAPGKQRELVGRIRNDGITYYADSVKGRFTMSRDNAKNTVYLQMNSLKPEDTAVYYCAADGTGLGHYDYWGQGTQVTVS', 'Max effect', '< 20%'),
  ('sdAb F1 (VHH) VHH: DVQLQESGGGLVQAGGSLKLSCAASGGSLSRYDMGWFRQAPGKEREFVARISWSGTTKYYADAVKGRFAISRDNAKNTVYLQMNSLKPEDTAVYYCAAAFYGNRGYYDVNAYTSSGQGTQVTVS', 'Max effect', '0%'),
  ('A1B3(G4S)4 (bispecific antibody) EVQLLESGGGLVQPGGSLRLSCAASGFTFGNYDMAWVRQAPGKRPEWVSSIDTGGDITHYADSVKGRFTISRDNAKNTLYLQMNSLRPEDTAVYWCATDEEYALGPNEFDYYGQGTLVTVSGGGGSGGGGSGGGGSGGGGSDVQLQESGGGLVQAGGSLRLSCAASGFIFRLAGMSWVRQAPGKGFEWVSGITMDGSTTNYADSVKGRFTISRDNSKNRLYLQMNSLKPEDTAVYYCARGAKGGYNDPRGQGTQVTVS', 'Max effect', '80%'),
  ('sdAb B2 (VHH) VHH: QVQLVESGGGLVQAGGSLRLSCAVFGSTFSNNVADWYRQAPGKQRELVARISASGATREYGDSVKGRFTISRDDAKNTMYLQMNNLKPEDTAVYRCHKIEWEDLSRKDYWGQGTQVTVS', 'Max effect', '< 20%'),
  ('A1B1(G4S)3 (bispecific antibody) EVQLLESGGGLVQPGGSLRLSCAASGFTFGNYDMAWVRQAPGKRPEWVSSIDTGGDITHYADSVKGRFTISRDNAKNTLYLQMNSLRPEDTAVYWCATDEEYALGPNEFDYYGQGTLVTVSSGGGGSGGGGSGGGGSQVQLQESGGGLVQTGGSLRLSCAVHGRTFSNTGMGWFRQAPGNERQFVAIISPSGTSTYYADSVKGRFTISRDPAKNTVYLQMNSLKMDDTAVYYCAASYGSNWSTLRHQRRNEYDAWGQGTQVAVS', 'Max effect', '> 95%');
